System: BXPC-3
assay-details: Cytotoxicity against human BxPC3 cells
Format: functional, cell-based
# note: exactly 7 µM is not below, so it is NOT MET; use MET for IC50 strictly under it

C[C@@H]1O[C@@H](n2c3ccccc3c3c4c(c5c6ccccc6ccc5c32)C(=O)NC4=O)[C@H](O)[C@H](O)[C@H]1O | NOT MET
O=C1NC(=O)c2c1c1c3ccccc3ccc1c1c2c2ccccc2n1[C@H]1C[C@H](O)[C@@H](CO)O1 | NOT MET
O=C1NC(=O)c2c1c1c3ccccc3ccc1c1c2c2ccccc2n1[C@@H]1O[C@H](CO)[C@@H](O)[C@H](O)[C@H]1O | MET
O=C1NC(=O)c2c1c1c3ccccc3ccc1c1c2c2ccccc2n1[C@@H]1O[C@H](CO)[C@@H](O)[C@H]1O | MET
O=C1NC(=O)c2c1c1c3ccccc3ccc1c1c2c2ccccc2n1[C@H]1OC[C@@H](O)[C@@H](O)[C@H]1O | MET

Now look at this entry.
IN: Report whether reported IC50 is lower than 7 µM (strictly) for `O=C1NC(=O)c2c1c1c3ccccc3ccc1c1[nH]c3ccccc3c21`
OUT: NOT MET

* * *

Tested on: MCF7
assay-details: Cytotoxicity against human MCF7 cells
Format: functional, cell-based
measurement-label: pIC50
Conceptually, pIC50 converts a concentration in mol/L into minus its log10.

IN: Return reported pIC50; argument: `O=C1NC(=O)c2c1c1c3ccccc3ccc1c1c2c2ccccc2n1[C@@H]1O[C@H](CO)[C@@H](O)[C@H]1O`
OUT: 5.28

IN: # pIC50 lookup, item `O=C1NC(=O)c2c1c1c3ccccc3ccc1c1[nH]c3ccccc3c21`
OUT: 5.08

IN: Would you kindly share the measured pIC50 for `C[C@@H]1O[C@@H](n2c3ccccc3c3c4c(c5c6ccccc6ccc5c32)C(=O)NC4=O)[C@H](O)[C@H](O)[C@H]1O` ?
OUT: 5.35

IN: Given the compound `O=C1NC(=O)c2c1c1c3ccccc3ccc1c1c2c2ccccc2n1[C@H]1OC[C@@H](O)[C@@H](O)[C@H]1O` , what is its reported pIC50?
OUT: 5.32

IN: Form field: reported pIC50 of `O=C1NC(=O)c2c1c1c3ccccc3ccc1c1c2c2ccccc2n1[C@@H]1O[C@H](CO)[C@@H](O)[C@H](O)[C@H]1O`
OUT: 5.21

IN: Item under review: `O=C1NC(=O)c2c1c1c3ccccc3ccc1c1c2c2ccccc2n1[C@H]1C[C@H](O)[C@@H](CO)O1` . Reported pIC50?
OUT: 5.14

* * *

Tested on: A549
assay-details: Cytotoxicity against human A549 cells
Type: functional, cell-based
measurement-label: IC50 (nM)
Provide only the numeric value, understood in nM.

Guide cases for IC50, answers given:
O=C1NC(=O)c2c1c1c3ccccc3ccc1c1c2c2ccccc2n1[C@@H]1O[C@H](CO)[C@@H](O)[C@H]1O | 2100
O=C1NC(=O)c2c1c1c3ccccc3ccc1c1c2c2ccccc2n1[C@H]1C[C@H](O)[C@@H](CO)O1 | 3400
C[C@@H]1O[C@@H](n2c3ccccc3c3c4c(c5c6ccccc6ccc5c32)C(=O)NC4=O)[C@H](O)[C@H](O)[C@H]1O | 2800
O=C1NC(=O)c2c1c1c3ccccc3ccc1c1c2c2ccccc2n1[C@H]1OC[C@@H](O)[C@@H](O)[C@H]1O | 2000
O=C1NC(=O)c2c1c1c3ccccc3ccc1c1c2c2ccccc2n1[C@@H]1O[C@H](CO)[C@@H](O)[C@H](O)[C@H]1O | 2800

Below: the item to evaluate.
IN: Need IC50, item `O=C1NC(=O)c2c1c1c3ccccc3ccc1c1[nH]c3ccccc3c21`
OUT: 2600

* * *

Test system: HCT-116
assay-details: Cytotoxicity against human HCT116 cells
Assay type: functional, cell-based
Returns: string. Value is satisfied if measured IC50 is below 6 µM, and not satisfied if it is greater than or equal to it.

Below, 4 compounds whose answers are already recorded.
O=C1NC(=O)c2c1c1c3ccccc3ccc1c1c2c2ccccc2n1[C@@H]1O[C@H](CO)[C@@H](O)[C@H](O)[C@H]1O | satisfied
O=C1NC(=O)c2c1c1c3ccccc3ccc1c1c2c2ccccc2n1[C@@H]1O[C@H](CO)[C@@H](O)[C@H]1O | satisfied
O=C1NC(=O)c2c1c1c3ccccc3ccc1c1[nH]c3ccccc3c21 | satisfied
C[C@@H]1O[C@@H](n2c3ccccc3c3c4c(c5c6ccccc6ccc5c32)C(=O)NC4=O)[C@H](O)[C@H](O)[C@H]1O | satisfied

Moving on to another compound below.
IN: API: query returns whether the compound falls strictly under 6 µM in IC50. Query: `O=C1NC(=O)c2c1c1c3ccccc3ccc1c1c2c2ccccc2n1[C@H]1C[C@H](O)[C@@H](CO)O1`
OUT: not satisfied

* * *

Catalogue of pIC50 values
Test system: MDA-MB-231
assay-details: Cytotoxicity against human MDA-MB-231 cells
Format: functional, cell-based
Reminder that pIC50 is minus the log10 of a molar concentration.

Some solved cases for reference:
O=C1NC(=O)c2c1c1c3ccccc3ccc1c1c2c2ccccc2n1[C@@H]1O[C@H](CO)[C@@H](O)[C@H]1O | 5.62
O=C1NC(=O)c2c1c1c3ccccc3ccc1c1c2c2ccccc2n1[C@H]1C[C@H](O)[C@@H](CO)O1 | 5.48
C[C@@H]1O[C@@H](n2c3ccccc3c3c4c(c5c6ccccc6ccc5c32)C(=O)NC4=O)[C@H](O)[C@H](O)[C@H]1O | 5.33

IN: Data request, read-out pIC50, for `O=C1NC(=O)c2c1c1c3ccccc3ccc1c1c2c2ccccc2n1[C@@H]1O[C@H](CO)[C@@H](O)[C@H](O)[C@H]1O`
OUT: 5.57

IN: Suppose we examine the compound `O=C1NC(=O)c2c1c1c3ccccc3ccc1c1c2c2ccccc2n1[C@H]1OC[C@@H](O)[C@@H](O)[C@H]1O` ; what pIC50 value has been reported?
OUT: 5.48

IN: Request the reported pIC50 associated with `O=C1NC(=O)c2c1c1c3ccccc3ccc1c1[nH]c3ccccc3c21`
OUT: 5.09
